System: B6 CD45.1^+ CD4^+ T cells
Test method notes: In vitro mixed lymphocyte reaction, CD4+ responders
Assay type: cell-based, mouse
Measurement conditions: agent added to MLR containing accepting allograft-derived CD8+ T cells
Protocol: In vitro mixed lymphocyte reactions were performed in round bottom 96-well plates using 3×10^5 T cell-depleted Balb/c splenocyte stimulators with 10^5 CFSE-labeled B6 CD45.1^+ CD4^+ or CD8^+ T cell responders and, as indicated, 10^5 CD8^+ T cells isolated from lungs or spleens of immunosuppressed B6 recipients of Balb/c allografts. For some experiments central and effector memory T cells were sorted from lungs of resting mice. T cell responses were evaluated flow cytometrically on day 5. […]
Observable: CD8+ T cell-mediated suppression of CD4+ T lymphocyte proliferation

{"Smiles structure": "NC(=NCCC[C@H](N)C(=O)O)N[N+](=O)[O-]", "Test value": "able to attenuate"}
{"Smiles structure": "CC(=N)NCCCC[C@H](N)C(=O)O.Cl.Cl", "Test value": "able to attenuate"}
